Source: patent US9649389B2

assay: Optical properties of silaxanthenium fluorochromes (absorption/emission maxima, relative brightness); format: physicochemical; conditions: 1×PBS, 1 cm square cuvette
value type: Em. Λmax (nm)
Hi! Could you send only the number? It should be in nm, unit omitted.

Cc1ccccc1C1=C2C=CC(=[N+](C)C)C=C2[Si](C)(C)c2cc(N(C)C)ccc21 = 666
Cc1csc(C(=O)O)c1C1=C2C=CC(=[N+](C)C)C=C2[Si](C)(C)c2cc(N(C)C)ccc21 = 666
CN(C)c1ccc2c(c1)[Si](C)(C)C1=CC(=[N+](C)C)C=CC1=C2c1ccc(C(=O)O)s1 = 683
Cc1cc(C(=O)O)ccc1C1=C2C=CC(=[N+]3CCCC3)C=C2[Si](C)(C)c2cc(N3CCCC3)ccc21 = 669
Cc1c(C2=C3C=CC(=[N+](C)C)C=C3[Si](C)(C)c3cc(N(C)C)ccc32)csc1C(=O)O = 668

Given the entry "Cc1cc(C(=O)O)ccc1C1=C2C=CC(=[N+]3CCOCC3)C=C2[Si](C)(C)c2cc(N3CCOCC3)ccc21" , report its measured Em. Λmax.
670

---

test: Optical properties of silaxanthenium fluorochromes (absorption/emission maxima, relative brightness); assay type: physicochemical; settings: 1×PBS, 1 cm square cuvette
# Abs. λmax per entry
Hi! Could you send only the number? It should be in nm, unit omitted.

CN(C)c1ccc2c(c1)[Si](C)(C)C1=CC(=[N+](C)C)C=CC1=C2c1ccc(C(=O)O)s1 = 669
Cc1cc(C(=O)O)ccc1C1=C2C=CC(=[N+]3CCOCC3)C=C2[Si](C)(C)c2cc(N3CCOCC3)ccc21 = 651
Cc1ccccc1C1=C2C=CC(=[N+](C)C)C=C2[Si](C)(C)c2cc(N(C)C)ccc21 = 650
Cc1c(C2=C3C=CC(=[N+](C)C)C=C3[Si](C)(C)c3cc(N(C)C)ccc32)csc1C(=O)O = 653
Cc1csc(C(=O)O)c1C1=C2C=CC(=[N+](C)C)C=C2[Si](C)(C)c2cc(N(C)C)ccc21 = 649

Given the entry "Cc1cc(C(=O)O)ccc1C1=C2C=CC(=[N+]3CCCC3)C=C2[Si](C)(C)c2cc(N3CCCC3)ccc21" , report its measured Abs. λmax.
655

---

experiment: Optical properties of silaxanthenium fluorochromes (absorption/emission maxima, relative brightness); format: physicochemical; conditions: brightness (fluorescence intensity / absorption at λmax) normalized to CY1, 1×PBS
# Relative Fluorescence per entry
Lab note: jot the number down without any unit.

Cc1csc(C(=O)O)c1C1=C2C=CC(=[N+](C)C)C=C2[Si](C)(C)c2cc(N(C)C)ccc21 = 1.11
Cc1cc(C(=O)O)ccc1C1=C2C=CC(=[N+]3CCOCC3)C=C2[Si](C)(C)c2cc(N3CCOCC3)ccc21 = 0.75
CN(C)c1ccc2c(c1)[Si](C)(C)C1=CC(=[N+](C)C)C=CC1=C2c1ccc(C(=O)O)s1 = 0.05
Cc1ccccc1C1=C2C=CC(=[N+](C)C)C=C2[Si](C)(C)c2cc(N(C)C)ccc21 = 1.20
Cc1c(C2=C3C=CC(=[N+](C)C)C=C3[Si](C)(C)c3cc(N(C)C)ccc32)csc1C(=O)O = 1.02

As a next step, examine the compound that follows.
Given the entry "Cc1cc(C(=O)O)ccc1C1=C2C=CC(=[N+]3CCCC3)C=C2[Si](C)(C)c2cc(N3CCCC3)ccc21" , report its measured Relative Fluorescence.
1.54
